# reported ACC Mean.Spheroid.Burst.Duration; entries follow
- Test system: human iPSC-derived 3D BrainSpheres
- test-name: BrainSphere MEA assay (HD-MEA, 13-day exposure, concentration-response)
- Type: cell-based
- experimental-parameters: tcplfit2 output ACC; activity cutoff in Supplemental Table 1
- Procedure: A volume of 1 ml of Tergazyme (1% solution in deionized water) was added to each well of the MaxTwo 6-Well Plate (MaxWell Biosystems) and incubated overnight under constant gyratory shaking (88 RPM) at 37 °C and 5% CO2. […] A custom analysis framework was used to extract the MaxLab Live neuronal metrics for the individual BrainSpheres. […] Ten MaxLab Live neural metrics (endpoints) were evaluated from the MaxLab live ActivityScan and Network Assay in this study. […]
Lab book: enter the figure in µM, no units written.

Consider the following illustrative entries.
{"molecule": "CC(C)(c1ccc(O)cc1)c1ccc(O)cc1 [Bisphenol A]", "measured-on": "human iPSC-derived 3D BrainSpheres", "recorded-endpoint": "ACC Mean.Spheroid.Burst.Duration", "meas-value": 27}
{"molecule": "[CH3][Hg][Cl] [Methylmercury]", "measured-on": "human iPSC-derived 3D BrainSpheres", "recorded-endpoint": "ACC Mean.Spheroid.Burst.Duration", "meas-value": 5.4}
{"molecule": "Brc1ccc(Oc2ccc(Br)cc2Br)c(Br)c1 [BDE- 47]", "measured-on": "human iPSC-derived 3D BrainSpheres", "recorded-endpoint": "ACC Mean.Spheroid.Burst.Duration", "meas-value": 7.9}
{"molecule": "C/C(=C/C=C/[C@@H](C)C(=O)O)[C@H]1CN[C@H](C(=O)O)[C@H]1CC(=O)O [Domoic acid]", "measured-on": "human iPSC-derived 3D BrainSpheres", "recorded-endpoint": "ACC Mean.Spheroid.Burst.Duration", "meas-value": 1.8}

Pending molecule:
Input: Bench note: what ACC Mean.Spheroid.Burst.Duration did CC1(C)[C@H](C(=O)O[C@H](C#N)c2cccc(Oc3ccccc3)c2)[C@@H]1C=C(Br)Br [Deltamethrin] show?
Output: 1.7
